test system: SK-MEL-28 melanoma; assay: NCI tumour cell line growth inhibition, 48 h; in the data active = GI50 below about 0.43 µM; inactive = the rest
Outcome codes: active, inactive

- compound: "CCC[CH2][Sn]([CH2]CCC)([CH2]CCC)[O]C(=O)C(OC)c1ccccc1 (centres undefined)"
  tgt: "SK-MEL-28 melanoma"
  answer label: "active"
- compound: "CC/C(Cc1ccccc1)=C(/c1ccc(O)cc1)c1ccc(OCCN2CCCC2)cc1"
  tgt: "SK-MEL-28 melanoma"
  answer label: "inactive"
- compound: "CC1=C(C#N)C(/C=C(\\Cl)c2ccc(F)cc2)C(C#N)=C(C)N1"
  tgt: "SK-MEL-28 melanoma"
  answer label: "inactive"
- compound: "COc1ccc(-c2nn3ncccc3c2-c2ccnc(Nc3ccc4c(c3)OCCO4)n2)cc1"
  tgt: "SK-MEL-28 melanoma"
  answer label: "inactive"
- compound: "O=C([CH-]C(=O)c1ccccc1)c1ccccc1.O=C([CH-]C(=O)c1ccccc1)c1ccccc1.O=C([CH-]C(=O)c1ccccc1)c1ccccc1.[Cl-].[Zr+4]"
  tgt: "SK-MEL-28 melanoma"
  answer label: "inactive"
- compound: "CC12OC(C(=O)C13CCC3)C1C(=O)c3ccc4c(ccc5ccccc54)c3C(=O)C12 (centres undefined)"
  tgt: "SK-MEL-28 melanoma"
  answer label: "inactive"
- compound: "CCc1nc2cc(/C=C/C(=O)NO)ccc2c(=O)n1CCc1ccc(OC)cc1"
  tgt: "SK-MEL-28 melanoma"
  answer label: "inactive"
- compound: "COc1cc2nc(-c3cccc4cccnc34)nc(NC3CCN(Cc4ccccc4)CC3)c2cc1OC"
  tgt: "SK-MEL-28 melanoma"
  answer label: "inactive"
- compound: "Cn1cc(C2=C(c3ccccc3C(F)(F)F)C(=O)NC2=O)c2ccccc21"
  tgt: "SK-MEL-28 melanoma"
  answer label: "inactive"

---

tested on: HCT-15 colon; assay: NCI tumour cell line growth inhibition, 48 h
Reported TGI values for the following compounds.
measurement name: TGI

- compound: "COc1cc(C2c3cc4c(cc3[C@@H](N(C)c3ccc(N(C)C)cc3)C3COC(=O)C23)OCO4)cc(OC)c1O (some centres undefined)"
  tgt: "HCT-15 colon"
  result: "25.7 µM"
- compound: "COc1cc(-c2nccc3cc4c(cc23)OCO4)cc(OC)c1OC"
  tgt: "HCT-15 colon"
  result: "> 100 µM"
- compound: "COc1cc(OC)c(C2(c3c(OC(C)C)c(=O)c3=O)SCCCS2)cc1OC"
  tgt: "HCT-15 colon"
  result: "> 100 µM"
- compound: "CCn1c(CSc2nc(-c3ccccc3)c(-c3ccccc3)[nH]2)n[nH]c1=S"
  tgt: "HCT-15 colon"
  result: "> 100 µM"
- compound: "Cc1cn(C2OC(CO)C(O)C2F)c(=O)[nH]c1=O (centres undefined)"
  tgt: "HCT-15 colon"
  result: "> 100 µM"
- compound: "CC(=O)c1c(O)n(-c2ccc(C)cc2)c(=O)c2c(N)n[nH]c12"
  tgt: "HCT-15 colon"
  result: "> 100 µM"
- compound: "O=C(CN(/C=C/C(=O)C(F)(F)F)c1ccccc1)c1ccc(Cl)cc1"
  tgt: "HCT-15 colon"
  result: "46 µM"
- compound: "CC[n+]1c(/C=C/c2ccc(N(CCCl)CCCl)cc2)ccc2cc(I)ccc21"
  tgt: "HCT-15 colon"
  result: "28.1 µM"
- compound: "OC12c3ccccc3C1CCCCCC21OCCCO1 (centres undefined)"
  tgt: "HCT-15 colon"
  result: "> 100 µM"
- compound: "CC/C(Cc1ccccc1)=C(/c1ccc(O)cc1)c1ccc(OCCN2CCCC2)cc1"
  tgt: "HCT-15 colon"
  result: "3.08 µM"
- compound: "CCN(CC)CCN1C(=O)C(=O)N(c2cccc3ccccc23)C1=O"
  tgt: "HCT-15 colon"
  result: "> 10 µM"
- compound: "CCCCCCCCCC(=O)NC(Cc1ccc(O)cc1)C(=O)NCCCNCCCCNCCCNC(=O)[C@@H](N)CCCN=C(N)N (some centres undefined)"
  tgt: "HCT-15 colon"
  result: "> 100 µM"
- compound: "COc1ccc(CCN2C(=O)CC34C=CC(CC3C2=O)O4)cc1OC (centres undefined)"
  tgt: "HCT-15 colon"
  result: "> 100 µM"
- compound: "C[C@H](NC(=O)c1c(C(F)F)nn(C)c1Oc1cccc(C(F)(F)F)c1)c1ccc(C(=O)O)cc1"
  tgt: "HCT-15 colon"
  result: "> 100 µM"
- compound: "CCC(=O)C(C(=O)CC)c1c(OC(=O)c2ccccc2)ccc(O)c1C(=O)OC"
  tgt: "HCT-15 colon"
  result: "> 100 µM"
- compound: "O=C(Oc1ccccc1)C(Br)C(Br)c1ccccc1 (centres undefined)"
  tgt: "HCT-15 colon"
  result: "6.24 µM"
- compound: "C/C(=N\\NC(N)=S)c1sc(-n2nc(-c3ccccc3)cc2-c2ccccc2)nc1C"
  tgt: "HCT-15 colon"
  result: "> 100 µM"
- compound: "COc1ccc2c(c1)[n+](=O)c(C(=O)CC(=O)C(=O)Nc1cccc(C)c1C)c(C)n2[O-]"
  tgt: "HCT-15 colon"
  result: "> 100 µM"
- compound: "CC(=O)OC1C(O[C@H]2CC[C@]34O[C@]35CC[C@]3(C)C(C6(C)CC[C@@H](C(C)(C)O)O6)[C@@H](O)CC3(C)[C@@H]5CC(OC3OC(CO)C(O)C(O)C3O)C4C2(C)C)OCC(O)C1O (some centres undefined)"
  tgt: "HCT-15 colon"
  result: "> 57.8 µM"
